Values were extracted from patent US20240360228A1.

molecular target: T1, human CCR8 (human, UniProt P51685 1-355); assay: flow blocking, PBMC CCR8+CD4+; competitor PE-AB5
T1 construct: Native CCR8 on human PBMC (CCR8+ CD3+ or CCR8+ CD4+ lymphocytes); also called chemokine (C-C motif) receptor 8
T1 sequence (P51685 whole entry): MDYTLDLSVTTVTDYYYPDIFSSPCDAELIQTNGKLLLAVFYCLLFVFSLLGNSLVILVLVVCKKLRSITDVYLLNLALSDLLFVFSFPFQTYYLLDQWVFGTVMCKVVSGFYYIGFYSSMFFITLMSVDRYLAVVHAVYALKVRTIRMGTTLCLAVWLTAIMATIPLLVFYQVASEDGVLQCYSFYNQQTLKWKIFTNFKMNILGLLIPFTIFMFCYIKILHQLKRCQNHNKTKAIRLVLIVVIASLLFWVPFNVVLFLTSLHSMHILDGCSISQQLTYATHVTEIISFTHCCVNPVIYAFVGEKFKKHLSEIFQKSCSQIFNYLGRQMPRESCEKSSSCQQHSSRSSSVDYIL
Known % Positive cells of a selection of binders
readout.kind: % Positive cells

1) AB12 (antibody, V domains shown, Hybridoma monoclonal; also called antibody 12; clone 12) VH: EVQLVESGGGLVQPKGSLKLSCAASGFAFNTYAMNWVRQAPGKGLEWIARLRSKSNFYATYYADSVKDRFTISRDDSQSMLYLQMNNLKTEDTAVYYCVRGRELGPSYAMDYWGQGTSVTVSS VL: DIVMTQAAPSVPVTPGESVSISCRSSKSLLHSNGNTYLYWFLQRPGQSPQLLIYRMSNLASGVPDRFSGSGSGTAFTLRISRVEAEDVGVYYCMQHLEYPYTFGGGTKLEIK    2.07%
2) AB3 (antibody, V domains shown, Hybridoma monoclonal; also called antibody 3; clone 3) VH: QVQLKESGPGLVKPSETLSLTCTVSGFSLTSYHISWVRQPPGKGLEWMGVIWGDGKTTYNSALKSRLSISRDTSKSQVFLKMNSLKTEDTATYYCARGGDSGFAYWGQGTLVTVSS VL: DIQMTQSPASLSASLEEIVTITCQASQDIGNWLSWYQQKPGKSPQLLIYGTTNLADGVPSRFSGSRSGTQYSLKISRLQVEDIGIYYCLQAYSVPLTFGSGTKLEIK    0.3%
